These measurements were taken from patent US5840684A.

- Tested on: Staphylococcus aureus S13E
- Type: cell-based
readout.name: MIC (mg/L)
// units = mg/L; emit number, no label

Solved entries:
CNC(CC(C)C)C(=O)NC1C(=O)NC(CC(N)=O)C(=O)NC2C(=O)NC3C(=O)NC(C(=O)NC(C(=O)O)c4cc(O)cc(O)c4-c4cc3ccc4O)C(OC3CC(C)(N)C(O)C(C)O3)c3ccc(c(Cl)c3)Oc3cc2cc(c3OC2OC(CO)C(O)C(O)C2OC2CC(C)(NCc3ccc([S+]([O-])c4ccccc4)cc3)C(O)C(C)O2)Oc2ccc(cc2Cl)C1O (centres unmarked) [Compound 159] :: 1
CCCCCC#Cc1ccc(CNC2(C)CC(OC3C(Oc4c5cc6cc4Oc4ccc(cc4Cl)C(OC4CC(C)(N)C(O)C(C)O4)C4NC(=O)C(NC(=O)C6NC(=O)C(CC(N)=O)NC(=O)C(NC(=O)C(CC(C)C)NC)C(O)c6ccc(c(Cl)c6)O5)c5ccc(O)c(c5)-c5c(O)cc(O)cc5C(C(=O)O)NC4=O)OC(CO)C(O)C3O)OC(C)C2O)cc1 (centres unmarked) [Compound 227] :: 4
CNC(CC(C)C)C(=O)NC1C(=O)NC(CC(N)=O)C(=O)NC2C(=O)NC3C(=O)NC(C(=O)NC(C(=O)O)c4cc(O)cc(O)c4-c4cc3ccc4O)C(OC3CC(C)(N)C(O)C(C)O3)c3ccc(c(Cl)c3)Oc3cc2cc(c3OC2OC(CO)C(O)C(O)C2OC2CC(C)(NCc3ccc(N(C)c4ccccc4)cc3)C(O)C(C)O2)Oc2ccc(cc2Cl)C1O (centres unmarked) [Compound 178] :: 0.5

# get_value(readout='MIC', item= CN[C@H](CC(C)C)C(=O)N[C@H]1C(=O)N[C@@H](CC(N)=O)C(=O)N[C@H]2C(=O)N[C@H]3C(=O)N[C@H](C(=O)N[C@H](C(=O)O)c4cc(O)cc(O)c4-c4cc3ccc4O)[C@H](O[C@H]3C[C@](C)(N)[C@@H](O)[C@H](C)O3)c3ccc(c(Cl)c3)Oc3cc2cc(c3O[C@@H]2O[C@H](CO)[C@@H](O)[C@H](O)[C@H]2O[C@H]2C[C@](C)(NCc3ccc(-c4cccc(F)c4)cc3)[C@@H](O)[C@H](C)O2)Oc2ccc(cc2Cl)[C@H]1O [Compound 92] )
0.125

# get_value(readout='MIC', item= CNC(CC(C)C)C(=O)NC1C(=O)NC(CC(N)=O)C(=O)NC2C(=O)NC3C(=O)NC(C(=O)NC(C(=O)O)c4cc(O)cc(O)c4-c4cc3ccc4O)C(OC3CC(C)(N)C(O)C(C)O3)c3ccc(c(Cl)c3)Oc3cc2cc(c3OC2OC(CO)C(O)C(O)C2OC2CC(C)(NCc3ccc(Oc4ccc(Cl)cc4)cc3)C(O)C(C)O2)Oc2ccc(cc2Cl)C1O (centres unmarked) [Compound 240] )
0.5

# get_value(readout='MIC', item= CNC(CC(C)C)C(=O)NC1C(=O)NC(CC(N)=O)C(=O)NC2C(=O)NC3C(=O)NC(C(=O)NC(C(=O)O)c4cc(O)cc(O)c4-c4cc3ccc4O)C(OC3CC(C)(N)C(O)C(C)O3)c3ccc(c(Cl)c3)Oc3cc2cc(c3OC2OC(CO)C(O)C(O)C2OC2CC(C)(NCc3ccc4c(c3)CCc3ccccc3-4)C(O)C(C)O2)Oc2ccc(cc2Cl)C1O (centres unmarked) [Compound 220] )
0.5

----------
Reported MIC values for a set of compounds
- Test system: Haemophilus influenzae RD
- assay: broth micro-dilution MIC
- Assay type: cell-based
- condition.parameters: Haemophilus influenzae RD

Solved entries:
CNC(CC(C)C)C(=O)NC1C(=O)NC(CC(N)=O)C(=O)NC2C(=O)NC3C(=O)NC(C(=O)NC(C(=O)O)c4cc(O)cc(O)c4-c4cc3ccc4O)C(OC3CC(C)(N)C(O)C(C)O3)c3ccc(c(Cl)c3)Oc3cc2cc(c3OC2OC(CO)C(O)C(O)C2OC2CC(C)(NCc3cccc(OCC4CCCCC4)c3)C(O)C(C)O2)Oc2ccc(cc2Cl)C1O (centres unmarked) :: 16 mg/L
CC(C)CC(C(=O)NC1C(=O)NC(CC(N)=O)C(=O)NC2C(=O)NC3C(=O)NC(C(=O)NC(C(=O)O)c4cc(O)cc(O)c4-c4cc3ccc4O)C(OC3CC(C)(N)C(O)C(C)O3)c3ccc(c(Cl)c3)Oc3cc2cc(c3OC2OC(CO)C(O)C(O)C2OC2CC(C)(N)C(O)C(C)O2)Oc2ccc(cc2Cl)C1O)N(C)Cc1ccc(O)cc1 (centres unmarked) :: > 64 mg/L
CC(C)CC(C(=O)NC1C(=O)NC(CC(N)=O)C(=O)NC2C(=O)NC3C(=O)NC(C(=O)NC(C(=O)O)c4cc(O)cc(O)c4-c4cc3ccc4O)C(OC3CC(C)(N)C(O)C(C)O3)c3ccc(c(Cl)c3)Oc3cc2cc(c3OC2OC(CO)C(O)C(O)C2OC2CC(C)(NCc3cccnc3)C(O)C(C)O2)Oc2ccc(cc2Cl)C1O)N(C)Cc1cccnc1 (centres unmarked) :: > 64 mg/L
CC(C)CC(C(=O)NC1C(=O)NC(CC(N)=O)C(=O)NC2C(=O)NC3C(=O)NC(C(=O)NC(C(=O)O)c4cc(O)cc(O)c4-c4cc3ccc4O)C(OC3CC(C)(N)C(O)C(C)O3)c3ccc(c(Cl)c3)Oc3cc2cc(c3OC2OC(CO)C(O)C(O)C2OC2CC(C)(NCc3cccc4c3OCO4)C(O)C(C)O2)Oc2ccc(cc2Cl)C1O)N(C)Cc1cccc2c1OCO2 (centres unmarked) :: > 64 mg/L
CC(C)CC(C(=O)NC1C(=O)NC(CC(N)=O)C(=O)NC2C(=O)NC3C(=O)NC(C(=O)NC(C(=O)O)c4cc(O)cc(O)c4-c4cc3ccc4O)C(OC3CC(C)(N)C(O)C(C)O3)c3ccc(c(Cl)c3)Oc3cc2cc(c3OC2OC(CO)C(O)C(O)C2OC2CC(C)(NCc3ccc(N(C)c4ccccc4)cc3)C(O)C(C)O2)Oc2ccc(cc2Cl)C1O)N(C)Cc1ccc(N(C)c2ccccc2)cc1 (centres unmarked) :: > 64 mg/L
CC(C)CC(C(=O)NC1C(=O)NC(CC(N)=O)C(=O)NC2C(=O)NC3C(=O)NC(C(=O)NC(C(=O)O)c4cc(O)cc(O)c4-c4cc3ccc4O)C(OC3CC(C)(NCc4ccc(-c5ccc(Cl)cc5)cc4)C(O)C(C)O3)c3ccc(c(Cl)c3)Oc3cc2cc(c3OC2OC(CO)C(O)C(O)C2OC2CC(C)(NCc3ccc(-c4ccc(Cl)cc4)cc3)C(O)C(C)O2)Oc2ccc(cc2Cl)C1O)N(C)Cc1ccc(-c2ccc(Cl)cc2)cc1.O=C(O)C(F)(F)F (centres unmarked) :: > 64 mg/L
CC(C)CC(C(=O)NC1C(=O)NC(CC(N)=O)C(=O)NC2C(=O)NC3C(=O)NC(C(=O)NC(C(=O)O)c4cc(O)cc(O)c4-c4cc3ccc4O)C(OC3CC(C)(N)C(O)C(C)O3)c3ccc(c(Cl)c3)Oc3cc2cc(c3OC2OC(CO)C(O)C(O)C2OC2CC(C)(NCc3ccncc3)C(O)C(C)O2)Oc2ccc(cc2Cl)C1O)N(C)Cc1ccncc1 (centres unmarked) :: > 64 mg/L
CNC(CC(C)C)C(=O)NC1C(=O)NC(CC(N)=O)C(=O)NC2C(=O)NC3C(=O)NC(C(=O)NC(C(=O)O)c4cc(O)cc(O)c4-c4cc3ccc4O)C(OC3CC(C)(N)C(O)C(C)O3)c3ccc(c(Cl)c3)Oc3cc2cc(c3OC2OC(CO)C(O)C(O)C2OC2CC(C)(NCc3ccc4c(c3)Cc3ccccc3-4)C(O)C(C)O2)Oc2ccc(cc2Cl)C1O (centres unmarked) :: > 64 mg/L

# get_value(readout='MIC', item= CNC(CC(C)C)C(=O)NC1C(=O)NC(CC(N)=O)C(=O)NC2C(=O)NC3C(=O)NC(C(=O)NC(C(=O)O)c4cc(O)cc(O)c4-c4cc3ccc4O)C(OC3CC(C)(N)C(O)C(C)O3)c3ccc(c(Cl)c3)Oc3cc2cc(c3OC2OC(CO)C(O)C(O)C2OC2CC(C)(NCCCCCCc3ccccc3)C(O)C(C)O2)Oc2ccc(cc2Cl)C1O (centres unmarked) )
32 mg/L

# get_value(readout='MIC', item= CNC(CC(C)C)C(=O)NC1C(=O)NC(CC(N)=O)C(=O)NC2C(=O)NC3C(=O)NC(C(=O)NC(C(=O)O)c4cc(O)cc(O)c4-c4cc3ccc4O)C(OC3CC(C)(N)C(O)C(C)O3)c3ccc(c(Cl)c3)Oc3cc2cc(c3OC2OC(CO)C(O)C(O)C2OC2CC(C)(NCCCCCCCCCCc3ccccc3)C(O)C(C)O2)Oc2ccc(cc2Cl)C1O (centres unmarked) )
32 mg/L

# get_value(readout='MIC', item= CNC(CC(C)C)C(=O)NC1C(=O)NC(CC(N)=O)C(=O)NC2C(=O)NC3C(=O)NC(C(=O)NC(C(=O)O)c4cc(O)cc(O)c4-c4cc3ccc4O)C(OC3CC(C)(N)C(O)C(C)O3)c3ccc(c(Cl)c3)Oc3cc2cc(c3OC2OC(CO)C(O)C(O)C2OC2CC(C)(NCCCCc3ccc(OC)cc3)C(O)C(C)O2)Oc2ccc(cc2Cl)C1O (centres unmarked) )
32 mg/L
